All figures here come from patent US20170342144A1.

Target: T1, human TGFβ2 (human, UniProt P61812 303-414)
T1 construct: also called TGFβ2 homodimer
T1 sequence: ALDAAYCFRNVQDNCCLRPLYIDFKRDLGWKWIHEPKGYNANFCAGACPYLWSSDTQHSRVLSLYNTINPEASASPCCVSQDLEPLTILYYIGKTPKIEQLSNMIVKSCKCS
Test: Biacore, 3.33-90 nM, 1:1 global fit, vs wt GC1008
Catalogue of binders with associated KD mutant/KD wt
Give only the figure.

Some solved entries appear below for comparison.
binder | KD mutant/KD wt
N32K (antibody, V domains shown, GC1008 IgG4 variant) VH: QVQLVQSGAEVKKPGSSVKVSCKASGYTFSSKVISWVRQAPGQGLEWMGGVIPIVDIANYAQRFKGRVTITADESTSTTYMELSSLRSEDTAVYYCASTLGLVLDAMDYWGQGTLVTVSS VL: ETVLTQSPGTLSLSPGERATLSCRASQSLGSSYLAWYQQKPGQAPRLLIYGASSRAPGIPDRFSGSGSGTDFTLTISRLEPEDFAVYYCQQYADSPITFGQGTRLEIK | 2.6
D56R (antibody, V domains shown, GC1008 IgG4 variant) VH: QVQLVQSGAEVKKPGSSVKVSCKASGYTFSSNVISWVRQAPGQGLEWMGGVIPIVRIANYAQRFKGRVTITADESTSTTYMELSSLRSEDTAVYYCASTLGLVLDAMDYWGQGTLVTVSS VL: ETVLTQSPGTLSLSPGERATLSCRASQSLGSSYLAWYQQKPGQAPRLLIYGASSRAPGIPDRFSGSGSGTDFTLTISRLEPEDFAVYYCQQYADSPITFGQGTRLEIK | 0.6
V55F (antibody, V domains shown, GC1008 IgG4 variant) VH: QVQLVQSGAEVKKPGSSVKVSCKASGYTFSSNVISWVRQAPGQGLEWMGGVIPIFDIANYAQRFKGRVTITADESTSTTYMELSSLRSEDTAVYYCASTLGLVLDAMDYWGQGTLVTVSS VL: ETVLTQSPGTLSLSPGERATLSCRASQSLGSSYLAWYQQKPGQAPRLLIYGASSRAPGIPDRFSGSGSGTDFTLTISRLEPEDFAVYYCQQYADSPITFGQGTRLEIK | 0.6
E74L (antibody, V domains shown, GC1008 IgG4 variant) VH: QVQLVQSGAEVKKPGSSVKVSCKASGYTFSSNVISWVRQAPGQGLEWMGGVIPIVDIANYAQRFKGRVTITADLSTSTTYMELSSLRSEDTAVYYCASTLGLVLDAMDYWGQGTLVTVSS VL: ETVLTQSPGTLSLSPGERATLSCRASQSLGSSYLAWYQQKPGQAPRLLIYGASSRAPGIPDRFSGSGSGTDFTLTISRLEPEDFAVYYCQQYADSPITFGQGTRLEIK | 0.7

Exam item: # get_value(readout='KD mutant/KD wt', item= S30E (antibody, V domains shown, GC1008 IgG4 variant) VH: QVQLVQSGAEVKKPGSSVKVSCKASGYTFESNVISWVRQAPGQGLEWMGGVIPIVDIANYAQRFKGRVTITADESTSTTYMELSSLRSEDTAVYYCASTLGLVLDAMDYWGQGTLVTVSS VL: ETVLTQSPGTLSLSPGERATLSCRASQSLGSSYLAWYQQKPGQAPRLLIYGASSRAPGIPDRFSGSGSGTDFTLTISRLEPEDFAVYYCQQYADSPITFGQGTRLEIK )
Marked response: 1.6
